molecular target: HIV-1 YU-2 gp120 (HIV-1 (YU-2), UniProt P35961); assay: SPR
measurementLabel: koff (s⁻¹)

>  <binder>
Fab m18 D53A (HCDR2) (Fab, V domains shown) VH: VQLLESGPGVVKPSETLSLTCTVSGASVNNYYWTWVRQPPGKGLEWIGNVYASGDTNYNPSLSSRLSLSMDTSKNQFSLRLSSVTAADTATYYCARYHRHFIRGPLSFDYWGRGTLVTVSS VL: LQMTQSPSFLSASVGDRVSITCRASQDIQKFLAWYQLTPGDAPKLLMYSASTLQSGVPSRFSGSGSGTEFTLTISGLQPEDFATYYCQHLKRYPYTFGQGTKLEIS

>  <measurementLabel>
koff

>  <measureUnit>
s⁻¹

>  <measured>
0.00012

$$$$
>  <binder>
Fab m18 Y102A (HCDR3) (Fab, V domains shown) VH: VQLLESGPGVVKPSETLSLTCTVSGASVNNYYWTWVRQPPGKGLEWIGNVYDSGDTNYNPSLSSRLSLSMDTSKNQFSLRLSSVTAADTATYYCARYHRHFIRGPLSFDAWGRGTLVTVSS VL: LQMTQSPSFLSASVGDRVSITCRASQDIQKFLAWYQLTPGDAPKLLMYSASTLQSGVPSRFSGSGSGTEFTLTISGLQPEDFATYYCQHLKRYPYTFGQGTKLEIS

>  <measurementLabel>
koff

>  <measureUnit>
s⁻¹

>  <measured>
0.0012

$$$$
>  <binder>
Fab m18 S62A (HCDR2) (Fab, V domains shown) VH: VQLLESGPGVVKPSETLSLTCTVSGASVNNYYWTWVRQPPGKGLEWIGNVYDSGDTNYNPALSSRLSLSMDTSKNQFSLRLSSVTAADTATYYCARYHRHFIRGPLSFDYWGRGTLVTVSS VL: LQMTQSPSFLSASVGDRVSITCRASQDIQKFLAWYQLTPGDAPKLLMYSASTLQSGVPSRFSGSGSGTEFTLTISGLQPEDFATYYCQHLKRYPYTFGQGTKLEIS

>  <measurementLabel>
koff

>  <measureUnit>
s⁻¹

>  <measured>
0.0016

$$$$

Where do these numbers come from? They come from paper PMC3499988.
